Source: patent US9597407B2

- System: microorganisms
- assay_text: Morphology, biofilm and growth disruption by peptides (Table 5)
- Type: cell-based
- Set-up: key: A: Peptide aggregates; B: Less hyphal formation; Clumps; Diffuse clumps and small polyps; F: Diffuse growth; H: Thin; I: Growth inhibition; Microcolony formation; Rippled; Small polyps; Thick; W: Halo formation on top, microlonies on bottom
- reported_conditions: S. pneumoniae
- Source text: In certain embodiments peptides that induce alterations in phenotype or other biological activities can also be used as antimicrobial effector moieties.
Ends that are not written are not given here.
assay_metric: Organism, effect (morphology, biofilm and growth disruption)

* PF-516 (ASKQASKQASKQASKQ; Peptide with targeting and/or antimicrobial activity) | S. pneumoniae (H)
* PF-532 (KFIYKYKLSFIIYKILIQTLTMELNK; Peptide with targeting and/or antimicrobial activity) | S. pneumoniae (C)
* PF-610 (VFLKLKTSKIDLASIIFYP; Peptide with targeting and/or antimicrobial activity) | S. pneumoniae (D)
* PF-764 (chain 1 GYFEPGKRD; chain 2 GYFEPGKRD; Peptide with targeting and/or antimicrobial activity) | S. pneumoniae (H)
* PF-535 (NIKTRKRALKIIKQHQRSK; Peptide with targeting and/or antimicrobial activity) | S. pneumoniae (H)

Note Organism, effect (morphology, biofilm and growth disruption) for the substance shown: PF-667 (chain 1 PAHQRLRIDQRLVADRDMVQDYES; chain 2 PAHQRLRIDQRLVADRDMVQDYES; Peptide with targeting and/or antimicrobial activity)
S. pneumoniae (R)

Tell me measured Organism, effect (morphology, biofilm and growth disruption) for SFMPEIQKNTIPTQMK [PF-512] please.
S. pneumoniae (H)

Please look at this substance and report its Organism, effect (morphology, biofilm and growth disruption): PF-572 (WRASKGLPGFKAG; Peptide with targeting and/or antimicrobial activity)
S. pneumoniae (R)

Return Organism, effect (morphology, biofilm and growth disruption) for the following substance: PF-466 (VRKSDQ; Peptide with targeting and/or antimicrobial activity)
S. pneumoniae (H)

Specify reported Organism, effect (morphology, biofilm and growth disruption) for the substance shown: PF-760 (chain 1 DHITLDDYEIHDGFNFELYYG; chain 2 DHITLDDYEIHDGFNFELYYG; Peptide with targeting and/or antimicrobial activity)
S. pneumoniae (C)

Query Organism, effect (morphology, biofilm and growth disruption) for PF-658 (chain 1 PTTPPPTTPPEIPTGGTVIST; chain 2 PTTPPPTTPPEIPTGGTVIST; Peptide with targeting and/or antimicrobial activity)
S. pneumoniae (H)

// fetch Organism, effect (morphology, biofilm and growth disruption) given entry PF-654 (chain 1 LSGRLAGRR; chain 2 LSGRLAGRR; Peptide with targeting and/or antimicrobial activity)
S. pneumoniae (A)

Please indicate Organism, effect (morphology, biofilm and growth disruption) recorded for PF-694 (chain 1 DLIRPLYSMSAPSVA; chain 2 DLIRPLYSMSAPSVA; Peptide with targeting and/or antimicrobial activity)
S. pneumoniae (A)

Fill in Organism, effect (morphology, biofilm and growth disruption) for record PF-655 (chain 1 DAPCFDDQFGDLKCQMC; chain 2 DAPCFDDQFGDLKCQMC; Peptide with targeting and/or antimicrobial activity)
S. pneumoniae (H)

Please look at this substance and report its Organism, effect (morphology, biofilm and growth disruption): PF-461 (MTLAIKNCSVTKCLGFGDFVNDDSDSYFDA; Peptide with targeting and/or antimicrobial activity)
S. pneumoniae (R)

In one line, give reported Organism, effect (morphology, biofilm and growth disruption) of the entry KFQGEFTNIGQSYIVSASHMSTSLNTGK [PF-583] .
S. pneumoniae (D)

Fill in reported Organism, effect (morphology, biofilm and growth disruption) for this entry: PF-517 (VKPTMTASLISTVC; Peptide with targeting and/or antimicrobial activity)
S. pneumoniae (M)

Given PF-534 (KYFHLFYHNIIHYSKQHLSLKVDFKN-NH2) , respond with its Organism, effect (morphology, biofilm and growth disruption).
S. pneumoniae (R)

// fetch Organism, effect (morphology, biofilm and growth disruption) given entry PF-541 (RRNLNSPNIKTRKRALKIIKQHQRSK; Peptide with targeting and/or antimicrobial activity)
S. pneumoniae (H)

Name the recorded Organism, effect (morphology, biofilm and growth disruption) of the item PF-429 (AATLICVGSGIMSSL; Peptide with targeting and/or antimicrobial activity) in your answer.
S. pneumoniae (M)

Input PF-607 (YIESDPRKFDYIFGAIRDH; Peptide with targeting and/or antimicrobial activity) , output reported Organism, effect (morphology, biofilm and growth disruption).
S. pneumoniae (R)

# return recorded Organism, effect (morphology, biofilm and growth disruption) for input PF-640 (chain 1 MGDINRNF; chain 2 MGDINRNF; Peptide with targeting and/or antimicrobial activity)
S. pneumoniae (I)

Please look at this substance and report its Organism, effect (morphology, biofilm and growth disruption): LSEMERRRLRKRA-NH2 [PF-529]
S. pneumoniae (H)

State its Organism, effect (morphology, biofilm and growth disruption): MRFGSLALVAYDSAIKHSWPRPSSVRRLRM [PF-672]
S. pneumoniae (I)

Output measured Organism, effect (morphology, biofilm and growth disruption) for this item: PF-540 (KSILILIKVIFIGQTTIIL; Peptide with targeting and/or antimicrobial activity)
S. pneumoniae (R)

Identify measured Organism, effect (morphology, biofilm and growth disruption) associated with PF-445 (ASMTKRLKLAMSKV; Peptide with targeting and/or antimicrobial activity)
S. pneumoniae (M)
